EXPERIMENT DESCRIPTION: soluble on expression in E. coli; label from the status in PepcDB or PDB records
MEASURED PROPERTY: soluble on expression in E. coli

SEQUENCE STRING | MEASURED PROPERTY | RECORDED MEASUREMENT
SRENLGRIQFSVGYNFQESTLTVKIMKAQELPAKDFSGTSDPFVKIYLLPDKKHKLETKVKRKNLNPHWNETFLFEGFPYEKVVQRILYLQVLDYDRFSRNDPIGEVSIPLNKVDLTQMQTFWKDLKP | soluble on expression in E. coli | soluble
MAASAWCCLRCCRDGGTGHIPLKEMPAVQLDTQHMGTDVVIVKNGRRICGTGGCLASAPLHQNKSYFEFKIQSTGIWGIGVATQKVNLNQIPLGRDMHSLVMRNDGALYHNNEEKNRLPANSLPQEGDVVGITYDHVELNVYLNGKNMHCPASGIRGTVYPVVYVDDSAILDCQFSEFYHTPPPGFEKILFEQQIF | soluble on expression in E. coli | soluble
MSLDNGEAAIIIGEFYKRNDQWKFRALSEGSAYGLSAFGRKIGLEVDDRHPRRPSGGSGGPAGGPRHESATGTAFVVGPAHVMTCAHVIEDMGVFYINSLEGRYKAEAVVIDRRNDIALLRVQGAPPLSAVTFREGQGCEPGDTVAVLGYPLASISGGGLQVTQGGISGLFGLHNDASLFQFTAPIQPGSSGSPLFDNGGAVIGMVTSTVPDGQNMNFAVKSALLMSFLQACRIDEGHHHHHH | soluble on expression in E. coli | not soluble
FAPLEADHPGRSGLLALLDNPDAYAARALSARMAGRSLDLMYYIWRTDLTGWLLIEELLAAADRGVRVRLLLDDVNVQGFDRAFLALNQHPNVEVRLFNPIRNRGHVLRRTLEMLLGLSRFNRRMHNKAWIADGRLAIVGGRNIGDTYYDAEESGLAMSRDADVMLAGPVVAEVEGLFDSYWNLGLALPILTLWPE | soluble on expression in E. coli | not soluble
MSFVHQKCRNIDTVYLGSNIHRLNVPDNLVKWSQEWSGYNPPAHTDPKVDGAVWADPEIDEKTFQPSWNAIDGKINRVSYVCQYSFDPVTLRPLNPIGRTGLSGRGLLGRWGPNHAADPIVSRTNDNGDLEFVAVQRHDNGEWAIPGGMVDAGEHVSQTLRREFAEEAMHGIVDSENLDELWNNGKELYRGYVDDPRNTDNAWMETVVFNFHDSKGLLKNVALQAGDDAKALRWIAVNSNEPLYASHSHFIDLLKESHSH | soluble on expression in E. coli | not soluble
SNVFARSSVLAAEMIDVFDRTHTEKELVFQSKELCRDFIHSRITREGLSWSKVELDLPEPRGVLVDVSVVLLKLGDELECMRPYVYRNIAKQLNISVSVEAVVSDAFLSVATEVIAMGITWGKVVAIYAVAAGLAVDCVRLGHPVMVHTIVDSLGEFVRRSLVPWLKKRGGWVDILKCVVNMDSRAHVHWLSTAVLTWREFIKTMYVYLTK | soluble on expression in E. coli | soluble
MGSDKIHHHHHHMFSAMLEVNPIPEQFDAYLGMAKMLRPELEKIEGFIDNERYESLTRPGWLLSLSNWRDEKSLIRWRTTTKHHKVQQAARDRIFADYRLRIGEVDTDTHLPIGEALHQQRLDVTEAGEGKAVTLLDADRSRYWLNGASAEAVAKSLGLDAQARGLLAWDVFKALLSPEEVIVVLTWRDEAAALAFGKNARLPGDVRLRSIRIVREYGMFDRREAPQYFEEVPRKA | soluble on expression in E. coli | not soluble
MRKMNLIVAMDAEGGIGKNGVLPWRIKKDMQYFASVTKNVSDQSKRNAVLMGRKCWESIPVTRRPLAGRLNIVLSRQLPAQKSDDYIVVNSLEAAMKLLSEPPFVDSIETIWNIGGAEIYDLALRENLVDEIHLTRIFKNFEADVHLKSLDFSKMEKVQNAEVSSENSEIFEENGLKFEFCKWKVVENH | soluble on expression in E. coli | not soluble
MHGESPIKRRESRKIWVGSVPVGGDAPIAVQSMTNSDTNDVAATVAQINRLEAAGVDIVRISVPDMDAAEAFGRIKQLVKVPLVADIHFDYRIALRVAELGVDCLRINPGNIGREDRVRAVVDAARDRGIPIRIGVNAGSLEKDLQKKYGEPTPEALVESALRHVEHLERLNFKDFKVSVKASDVFMAVAAYRLLAKQIVQPLHLGITEAGGLRSGTVKSAVGLGMLLAEGIGDTIRISLAADPVEEVKVGYDILKSLRLRSRGINFIACPSCSRQNFDVVKTMNELEGRLEDLLVPLDVAVIGCVVNGPGEAKEAHIGLTGGTPNLIYIDGKPAQKLTNDNLVDELERLIREKAAEKTAADASVIVRGLEHHHHHH | soluble on expression in E. coli | not soluble
MAHHHHHHMQSDARELNPGRADFWEHFYDQEDGRLRQKELHHRKAHEIVERGSLMNHYEWFMQYAMYEAALKACLRAVPTVLSKDGATRILHMGCGNSDFCDHVEGLLSDLHPVPSSSSRASEVLNVDICESIVAHLALHFPSRLYAVGNCCDLHVSSSPSMPFSSNAAWYSRDPALRLRKVLQSSVDVVFDKGTADALLSSFAGEYNPNMEAYMGEALKVLRPGGLLFLISINSEDVLSPYALSADDGLKSFHLAYTDVIELGAHDLRHLRVETLGSRYSCYGYAVVASAVAE | soluble on expression in E. coli | soluble
MAIIRQRYQEQLDDLIKELRRLGANVYVSIENGIKSLSIDDRGFARQTVKNDKHINQLNYDINERVIMLITKQQPIASDLRMMISSLKIASDLERIGDNASSIANIRLRTKITDDYVLTRLKTMGKLAMLMLKDLDQAFKKKDTVLIREIIERDEDIDDLYSHIINATYLIDNDPFVAAQAHLAARHLERIGDHIINIAESVYFYLTGTHYEQ | soluble on expression in E. coli | not soluble
MSTVKEAVDVEVPVHTAYNQWTQFEEFPHFMEGVEEVRQLDERHNHWTTQVSGVKREFDTEIVDQLPDERITWRTTTGDTNQKGTVRFQRLDDTHTRVELVMDVDPTGVAEKTGDMLGVIDRRVKGDMQRFKEYIEKRGGESGAWRGRIRPGELEHHHHHH | soluble on expression in E. coli | soluble

* * *

EXPERIMENT DESCRIPTION: soluble on expression in E. coli; label from the status in PepcDB or PDB records

SEQUENCE STRING | soluble on expression in E. coli
MIISAEGDVSIHHCFEAMLISLQEDYRQNTLRQLSRDDIKAGINYVKHYGKYKERTVRVLITALEAPQLYTACFSSNHGIKELAYQLEALGENRTRITYSYDYHPLDIFQKANQFIVGKLFKKSLERQSQAQLAALIQYAKQLQQPSSL | not soluble
MGSSHHHHHHSSGLVPRGSHMDAETVGRVKRFIQENVFVAANHNGSPLSIKEAPKELSFGARAELPRIHPVASKLLRLMQKKETNLCLSADVSLARELLQLADALGPSICMLKTHVDILNDFTLDVMKELITLAKCHEFLIFEDRKFADIGNTVKKQYEGGIFKIASWADLVNAHVVPGSGVVKGLQEVGLPLHRGCLLIAEMSSTGSLATGDYTRAAVRMAEEHSEFVVGFISGSRVSMKPEFLHLTPGVQLEAGGDNLGQQYNSPQEVIGKRGSDIIIVGRGIISAADRLEAAEMYRKAAWEAYLSRLGV | soluble
MGSDKIHHHHHHMKMSINQIGRSNKVQIEKTEVEISTPDGKMPAFFYQPCERGQKPAVILLMEAFGLTSHIQDVATRIAKEGYVVLTPDLYYRELTNNKFGYEEVEQAMAMMYRLDFGKPIEEDIRAAIAYLKSQSNVFSEKIGVTGFCLGGGLSFLSACKFSDEIAAVASFYGMVLDDWIEAVTNISVPIYLFYGGIDSFIPPERVQQIETRFQELSKEYTLKVYPDADHGFFCHERSSYNRLAAEDSWNELTQFFHRHLQ | not soluble
MQFIKNLQLNKKKDSDSSEQVLTNKKNKMKYEDFNFIRTLGTGSFGRVILATYKNGNYPPVAIKRFEKCKIIRQKQVDHVFSERKILNYINHPFCVNLHGSFKDDSYLYLVLEFVIGGEFFTFLRRNKRFPNDVGCFYAAQIVLIFEYLQSLNIVYRDLKPENLLLDKDGFIKMTDFGFAKIVETRTYTLCGTPEYIAPEILLNVGHGKAADWWTLGIFIYEILVGCPPFYANEPLLIYQKILEGIIYFPKFLDNNCKHLMKKLLSHDLTKRYGNLKKGAQNVKEHPWFSNIDWVNLLNKNVEVPYKPKYKNIFDSSNFERVQEDLTIADKITNENDPFYDW | not soluble
MQEKQLKTIQNKIASWIKEIESAFIDELFSKIGPSKMLRSKLMLALLNEKTDAILLDKAFNLCAIVEMIQTASLLHDDVIDKAAMRRKLPSINALFGNFNAVMLGDVFYSKAFFELSKMGESIAKSLSNAVLRLSRGEIEDVFVGGSFNSDKQKYWRILEDKTAHFIEASLKSMAILLNKDAKMYADFGLNFGMAFQIIDDLLDITQDAKTLGKPNFSDFKEGKTTLPYLLLYEKLNQRDQGLLISYFKQDSHEIIEWTKEKFKQYGTIEETLKIAQVYSKKALEAIKGENNLILEKLAQDVIYRTF | not soluble
MSLSHMGIFKFANGTIRVKDLEKSIEFYRDVIGMHELAREKGVVYFGCGADETFDIAIKEGGTGVEQFALQVADEEDIQYYEKKLTNLGISTQRMSNPEPGKKVALRFAAPSGHQLELALMEDRPHYLHPVAGHKGSRGIGILDADHITLHTKDVKGLAEFLQEALDFRVADVFEPAPGVWGAAWTHASDYHHDVALIGTSEDTTLHHFAFLVSGFEDMKRACDLLAQAGYKIETGPGRHGVGGNLFTYFLDPSGNRIELSAEMPRADRSVPHKVWPDFPPAFSTWGALPPESFAKGEGHHHHHH | soluble
MGSDKIHHHHHHMIPTIRLHSQQLINPVFNNPKDLVSWMGGIQAQDYTMSKWAIGIRLKAGNLQTVNEALAKGDILRIHVMRPTWHYVAAEDIRWMLKLSSRRIITANDSFAKSRGQDISVDIYNKANRLLEKALAGHNHLTKQEIDNIFKEGGLETNERLSNRFLIHAEAEGLICSGADKNNKITFALLDERVPPIQELHKEEALAILARKYFRSHSPASLKDFVWWSGLSVTEARQGIAAIEQELLTDRFLAQKLYVHQSYKEEKTTDILHILPSYDEYLISYKDRTDVLNKEYQHKAFNSFGIFRPVILYNGQIVGNWNKVIQKQTTHIEMNWFKKNTKIKRELLSLAERKYLTFFSEL | not soluble
MGSDKIHHHHHHMLKLSVCLLTCNSARLLMEVLPPLLKVADECIVVDSGSTDETVAICQQFGLTVHHHAYKAHGAQMNYAIGLASHDWVLCMDSDEILDNDVVAAIQALKAGEEPEPTCAWRLPRYWFVLGKQVRTIYPISSPDYPVRLFNRQQARFNDRPVDDQVVGHASSVRLPGFVRHDTFYSLHEVFNKLNSYTTRLVKYQQIKPSLTRGIVSAIGAFFKWYLFSGAWRYGKVGVVTGLYATFYSFLKYFKAWYAHEDNQAPVAQKRTDP | not soluble
MKESYYSIGEVSKLANVSIKALRYYDKIDLFKPAYVDPDTSYRYYTDSQLIHLDLIKSLKYIGTPLEEMKKAQDLEMEELFAFYTEQERQIREKLDFLSALEQTISLVKKRMKRQMEYPALGEVFVLDEEEIRIIQTEAEGIGPENVLNASYSKLKKFIESADGFTNNSYGATFSFQPYTSIDEMTYRHIFTPVLTNKQISSITPDMEITTIPKGRYACIAYNFSPEHYFLNLQKLIKYIADRQLTVVSDVYALIIPIHYSPKKQEEYRVEMKIRILDHHHHHH | soluble
MGSSHHHHHHSSGLVPRGSHMEHAFTPLEPLLPTGNLKYCLVVLNQPLDARFRHLWKKALLRACADGGANHLYDLTEGERESFLPEFVSGDFDSIRPEVKEYYTKKGCDLISTPDQDHTDFTKCLQVLQRKIEEKELQVDVIVTLGGLGGRFDQIMASVNTLFQATHITPVPIIIIQKDSLIYLLQPGKHRLHVDTGMEGSWCGLIPVGQPCNQVTTTGLKWNLTNDVLGFGTLVSTSNTYDGSGLVTVETDHPLLWTMAIKS | soluble
